experimental.target: GRP receptor (Mus musculus, UniProt P21729)
Construct: Swiss 3T3 fibroblasts were used in these tests as the source of GRP receptor; endogenous in cells; host or cells: Swiss 3T3 fibroblasts (from Dr. K. Brown, Institute of Animal Physiology, Cambridge, U.K.)
Sequence (P21729 whole entry): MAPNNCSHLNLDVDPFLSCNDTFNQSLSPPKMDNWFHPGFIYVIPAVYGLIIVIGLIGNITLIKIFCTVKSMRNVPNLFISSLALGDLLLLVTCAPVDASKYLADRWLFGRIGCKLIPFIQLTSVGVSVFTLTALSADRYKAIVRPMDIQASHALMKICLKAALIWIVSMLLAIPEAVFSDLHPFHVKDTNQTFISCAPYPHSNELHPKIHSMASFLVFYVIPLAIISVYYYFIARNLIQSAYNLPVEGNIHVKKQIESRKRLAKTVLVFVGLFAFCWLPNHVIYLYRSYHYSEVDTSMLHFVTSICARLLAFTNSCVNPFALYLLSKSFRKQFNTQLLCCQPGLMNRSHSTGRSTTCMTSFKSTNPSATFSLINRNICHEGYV
measurement.description: Binding inhibition of radiolabelled GRP (Procedure A)
assay.setup: assays of example 2 repeated; unit inferred
Residues, ends and D or L forms follow the SMILES beside them. *: point of attachment. OBn = c1ccc(CO*)cc1; X1 = CCCCCO*; OPr = CCCO*; X2 = CCCCO*
test.readout: IC50 (nM)
Give the quantity in nM, number only.

# input Look up IC50 for this molecule: COC(=O)[C@H](CC(C)C)NC(=O)[C@H](Cc1c[nH]cn1)NC(=O)CNC(=O)[C@@H](NC(=O)[C@H](C)NC(=O)[C@H](Cc1c[nH]c2ccccc12)NC(=O)[C@H](Cc1c[nH]cn1)NC(C)=O)C(C)C [AcHisTrpAlaValGlyHisLeu--OCH3] (Ac-HWAVGHL-OMe)
# output 7.7

# input Look up IC50 for this molecule: CCCCOC(=O)[C@H](CC(C)C)NC(=O)[C@H](Cc1c[nH]cn1)NC(=O)CNC(=O)[C@@H](NC(=O)[C@H](C)NC(=O)[C@H](Cc1c[nH]c2ccccc12)NC(=O)[C@H](Cc1c[nH]cn1)NC(C)=O)C(C)C [AcHisTrpAlaValGlyHisLeu--O(CH2)3 CH3] (Ac-HWAVGHL-X2)
# output 6.8

# input Look up IC50 for this molecule: CCCCCOC(=O)[C@H](CC(C)C)NC(=O)[C@H](Cc1c[nH]cn1)NC(=O)CNC(=O)[C@@H](NC(=O)[C@H](C)NC(=O)[C@H](Cc1c[nH]c2ccccc12)NC(=O)[C@H](Cc1c[nH]cn1)NC(C)=O)C(C)C [AcHisTrpAlaValGlyHisLeu--O(CH2)4 CH3] (Ac-HWAVGHL-X1)
# output 12.4

# input Look up IC50 for this molecule: CCCOC(=O)[C@H](CC(C)C)NC(=O)[C@H](Cc1c[nH]cn1)NC(=O)CNC(=O)[C@@H](NC(=O)[C@H](C)NC(=O)[C@H](Cc1c[nH]c2ccccc12)NC(=O)[C@H](Cc1c[nH]cn1)NC(C)=O)C(C)C [AcHisTrpAlaValGlyHisLeu--O(CH2)2 CH3] (Ac-HWAVGHL-OPr)
# output 3.5

# input Look up IC50 for this molecule: CC(=O)N[C@@H](Cc1c[nH]cn1)C(=O)N[C@@H](Cc1c[nH]c2ccccc12)C(=O)N[C@@H](C)C(=O)N[C@H](C(=O)NCC(=O)N[C@@H](Cc1c[nH]cn1)C(=O)N[C@@H](CC(C)C)C(=O)OCc1ccccc1)C(C)C [AcHisTrpAlaValGlyHisLeu--OCH2 C6 H5] (Ac-HWAVGHL-OBn)
# output 5.4
